Origin of the recorded values: PubChem BioAssay AID1578

assay.text: NOD1 signaling inhibitors, primary screen, cell-based, luminescence, uHTS (AID 1578);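 also: HEK-293T reporter cells stimulated with the NOD1 agonist gamma-tri-DAP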
condition.context: NOD1-driven NF-kB luciferase reporter cells, at 4 µM, hits give high values
Out of some 290,000 compounds screened, about 3,000 (1%) were called active. The list comes from a sample in which actives are over-represented; it also holds close analogues and randomly drawn compounds.
This section presents molecules with their documented inhibition values.

{"columns": ["molecule", "inhibition / %"],
 "data": [
  ["C#CCN1C(=O)C(O)(CC(=O)/C=C/C=C/c2ccccc2)c2ccccc21 (stereo unspecified)", 57],
  ["O=C(CSc1ncccn1)Nc1ncc(C(F)(F)F)cc1Cl", -20.5],
  ["CCC(=O)NC(=S)Nc1ccccc1C(=O)NC1CCCCC1", -10.9],
  ["O=C(O)c1ccccc1-n1cccc1C(=O)O", -9.5],
  ["CCCOC(=O)c1[nH]c2c(c1C)C(=O)CC(c1ccc(OC)c(OC)c1)C2 (stereo unspecified)", -5.9],
  ["Cc1cc(C)nc(SCC(=O)Nc2ncc(C(F)(F)F)cc2Cl)n1", -28.9],
  ["COc1ccc(OC)c2c1sc(=NC(=O)c1cccc(N3C(=O)CCC3=O)c1)n2C", -1.9],
  ["COc1ccc(-c2oc(NC(=O)CCl)c(C#N)c2-c2ccc(OC)cc2)cc1", 71.1],
  ["O=c1[nH]cnc2c1sc1nc3c(c(-c4ccc(Cl)cc4)c12)CCC3", 78.1],
  ["O=C(N/N=C/c1cccs1)c1cc(-c2ccncc2)nc2ccccc12", 4.8],
  ["c1coc(C2=NCCc3ccccc32)c1", -18],
  ["O=C1c2ccccc2C(=O)N1CCCC(=O)N1CCCc2ccccc21", -23.6],
  ["Cc1ccc(NS(=O)(=O)c2ccc(-c3cnc(C4CC4)o3)cc2)cc1", 37.3],
  ["Oc1c(Cl)cc(Cl)c2c1NCCC2", -5.4],
  ["CCOC(=O)CN(c1ccccc1C)S(=O)(=O)c1ccc(Cl)cc1", 21.3],
  ["CCOCCOC(=O)c1[nH]c2c(c1C)C(=O)CC(c1cc(OC)c(OC)c(OC)c1)C2 (stereo unspecified)", 4.2],
  ["CN(C)c1ccc(/C=C/c2ccc3ccccc3n2)cc1", 59.1],
  ["CN(C)c1ccc(/C=C/c2ccc3ccccc3[n+]2C)cc1", 43.8],
  ["Cc1nc(SCc2ccc(O)c([N+](=O)[O-])c2)c([N+](=O)[O-])[nH]1", -13.5],
  ["CC12CN3CCN(CC(C3)C1(O)CN1CCOCC1)C2 (stereo unspecified)", -10.8],
  ["CCCCC(=O)Nc1cccc(-c2cn3ccccc3n2)c1", -43.7],
  ["CCOC(=O)N1CCN(C(=O)CN(C2CCCCC2)S(=O)(=O)c2c(C)cc(C)cc2C)CC1", -2.2],
  ["COc1ccc(OC)c(NC(=O)CNC(=O)Cn2ccc3ccccc3c2=O)c1", -4],
  ["Nc1nc(SCC(=O)Nc2ncc(C(F)(F)F)cc2Cl)n[nH]1", 65.2],
  ["Cc1cc(NC(=O)CSc2nc(Cc3ccc(O)cc3)c(C)[nH]2)no1", 29.2],
  ["COc1ccc(OCCC(=O)OCC(=O)NC(=O)NC(C)(C)C)cc1", 7],
  ["CCN(CC)c1ccc(N2C(=O)/C(=C\\c3cccs3)SC2=S)cc1", -102],
  ["COc1ccc(OC)c(NS(=O)(=O)c2ccc(-c3coc(C)n3)cc2)c1", 29.1],
  ["C=C(C)COc1ccc(-c2[nH]ncc2-c2ccc(Br)cc2)c(O)c1", -22.6],
  ["O=C(c1cccc(F)c1)N1C2C=CC(C2)C1(C(F)(F)F)C(F)(F)F (stereo unspecified)", 23],
  ["CNC(=O)C(=O)NCC1OCCN1S(=O)(=O)c1ccc(C)cc1 (stereo unspecified)", -22.7],
  ["Cc1ccc(CCNC(=O)CN(C)S(=O)(=O)c2ccc3c(c2)n(C)c(=O)c(=O)n3C)cc1", -2.1],
  ["CCCN(CCC)c1ccc(/C=C/c2ccc3cc(OCC)ccc3n2)cc1", -1.6],
  ["CCCCCCC(=O)Nc1ccc(Cl)cn1", -24.4],
  ["c1csc(-c2nc(N3CCOCC3)c3ccccc3n2)c1", -9.5],
  ["O=C(NCCc1ccccc1)C1(S(=O)(=O)c2ccc(Cl)cc2)CC1", 7.4],
  ["S=C(NCc1ccco1)N1CCN(Cc2ccco2)CC1", -6.3],
  ["Oc1c(Cl)cc(Cl)cc1Sc1cc(Cl)cc(Cl)c1O", -35.5],
  ["CCCCC[n+]1cccc2c3ccccc3ccc21", 33.7],
  ["CCC(C)C(Nc1ncnc2scc(-c3ccccc3)c12)C(=O)O (stereo unspecified)", -21],
  ["CCOc1ccc(-c2[nH]ncc2Oc2cccc(OC)c2)c(O)c1", 10.8],
  ["Cc1ccc(NC(=O)CCN2CCN(C)CC2)cc1", 24.4],
  ["COc1ccc(-c2oc(NC(=O)c3ccc(C)cc3)c(C#N)c2-c2ccc(OC)cc2)cc1", -18.9],
  ["Cc1ccc(NC(=O)CCNC(=O)c2ccco2)cc1Cl", -23.6],
  ["Oc1ccc(/C=C/c2ccc3ccccc3n2)cc1", 50.2],
  ["COc1c(C)cc(C(=O)C2CCCN(S(=O)(=O)c3c(C)noc3C)C2)cc1C (stereo unspecified)", 48.6]
]}
